Test system: Plasmodium falciparum
Assay: Primary screen in NF54 nanoGlo assay, in single point, at 2uM, 72h
Assay type: functional, Erythrocyte
Settings: timepoint 72 hour
Screen size: about 150,000 compounds; about 540 (0.36%) showed an effect of 50% or more. The full list was thinned out, with strong results kept by preference.
Measured endpoint: % Inhibition (%)
Report only the number, with the unit % understood.

Please review the following examples before continuing.
CCCc1cc(NCC2(N3CCN(C)CC3)CCCCC2)n2nccc2n1; -3
CN1CCN(C[C@H]2CCCN(C(=O)c3ccnc4ccccc34)C2)CC1; 5
CCOc1cc(C(=O)NC2CCN(CC3CCCC3)CC2)cc(-c2ccccc2)c1OC; 71
COc1ccc(C(O)CNC2CCc3ccc(F)cc32)cc1 (stereo unspecified); 0
CC(C)CCC1CCCC1NCCCN1CCOCC1 (stereo unspecified); 6

What value of % Inhibition has been reported for the following compound? Cc1ocnc1CNC[C@H](O)c1ccc(Cl)c(Cl)c1
94

Which % Inhibition value is on record for CN(C)C1CCN(CCN[C@H]2CCc3ccc(F)cc32)CC1 ?
87
